Assay: Plasma and brain concentrations (PK) in healthy mice after oral dosing
Type: in vivo, Nu/Nu mice
Conditions: male, Nu/Nu, mouse, brain/plasma, po, 30 mg/kg, bid for 3 days and once on day 4, oral; day 4; read-out: Brain to plasma ratio based on AUCInf
quantity.name: Kp at 72 h
Give bare numbers.

input: Looking for the measured Kp at 72 h of C=CCn1c(=O)c2cnc(Nc3ccc(N4CCN(C)CC4)cc3)nc2n1-c1cccc(C(C)(C)O)n1 [AZD-1775, adavosertib, reference compound] , can you help?
output: 0.051

###

Assay: Plasma and brain concentrations (PK) in healthy mice after oral dosing
Format: in vivo, Nu/Nu mice
Conditions: male, Nu/Nu, mouse, brain/plasma, po, 30 mg/kg, single dose, oral; day 1; read-out: Brain to plasma ratio based on Cmax
Excerpt: […]
quantity.name: Kp
Answers are plain numbers.

input: Looking for the measured Kp of Cc1cc(Nc2ncc3c(n2)N(C)CN(c2c(Cl)cccc2Cl)C3=O)ccc1C1CCN(C)CC1 [Compound of formula (I)] , can you help?
output: 0.505

###

Assay: Plasma, brain and CSF concentrations (PK) in healthy rats after single oral dose
Format: in vivo, Wistar Han rats
Settings: male, Wistar Han, rat, CSF, po; 15 mg/kg p.o. single dose; read-out: AUCInf, CSF
quantity.name: AUC(0-inf) (ng·h/mL)
Answers are plain numbers, in ng·h/mL.

input: Looking for the measured AUC(0-inf) of Cc1cc(Nc2ncc3c(n2)N(C)CN(c2c(Cl)cccc2Cl)C3=O)ccc1C1CCN(C)CC1 , can you help?
output: 221

###

Experiment: Plasma and brain concentrations (PK) in healthy mice after oral dosing
Format: in vivo, Nu/Nu mice
Settings: male, Nu/Nu, mouse, plasma, po, 30 mg/kg, single dose, oral; day 1
quantity.name: Cmax

input: Looking for the measured Cmax of Cc1cc(Nc2ncc3c(n2)N(C)CN(c2c(Cl)cccc2Cl)C3=O)ccc1C1CCN(C)CC1 , can you help?
output: 7040 ng/mL

###

Experiment: Drug concentration in monkey brain and plasma after daily oral administration for 91 days
Assay type: in vivo, cynomolgus monkeys
Settings: female, cynomolgus monkey, brain (left forebrain), oral, 10 mg/kg, 10 mg/kg oral once a day for 91 days; left forebrain; individual animals; read-out: Brain concentration at 24 h post last dose
quantity.name: concentration at 24 h (ng/g)
Numbers only, in ng/g.

input: Looking for the measured concentration at 24 h of Cc1cc(Nc2ncc3c(n2)N(C)CN(c2c(Cl)cccc2Cl)C3=O)ccc1C1CCN(C)CC1 , can you help?
output: 4790

###

Assay: Plasma and brain concentrations (PK) in healthy mice after oral dosing
Assay type: in vivo, Nu/Nu mice
Settings: male, Nu/Nu, mouse, plasma, po, 30 mg/kg, qd for four days, oral; day 4; read-out: AUCLast, plasma
Text: […]
quantity.name: AUC(0-t) (ng·h/mL)
Numbers only, in ng·h/mL.

input: Looking for the measured AUC(0-t) of Cc1cc(Nc2ncc3c(n2)N(C)CN(c2c(Cl)cccc2Cl)C3=O)ccc1C1CCN(C)CC1 , can you help?
output: 64800

###

Assay: CSF and matching plasma concentrations in glioma patients (clinical trial Arms A and B)
Type: in vivo, human
Settings: human, CSF, 200 mg, Arm A, 200 mg, day 11 of cycle 1; read-out: CSF concentration
quantity.name: concentration at 11 day (nM)
Answers are plain numbers, in nM.

input: Looking for the measured concentration at 11 day of Cc1cc(Nc2ncc3c(n2)N(C)CN(c2c(Cl)cccc2Cl)C3=O)ccc1C1CCN(C)CC1 , can you help?
output: 19.8
